Ref: patent US20250066499A1

# target-system: T1, human CD73-His protein (human, UniProt P21589 27-549)
# T1 construct: Expressed in HEK-293F with a signal peptide that is not specified; In the ELISAs it was biotinylated with EZ-Link NHS-Biotin (CD73-biotin) and captured on streptavidin; in SPR and the enzyme assay it was used as CD73-His; also called CD73-his antigen; CD73-biotin
# T1 sequence: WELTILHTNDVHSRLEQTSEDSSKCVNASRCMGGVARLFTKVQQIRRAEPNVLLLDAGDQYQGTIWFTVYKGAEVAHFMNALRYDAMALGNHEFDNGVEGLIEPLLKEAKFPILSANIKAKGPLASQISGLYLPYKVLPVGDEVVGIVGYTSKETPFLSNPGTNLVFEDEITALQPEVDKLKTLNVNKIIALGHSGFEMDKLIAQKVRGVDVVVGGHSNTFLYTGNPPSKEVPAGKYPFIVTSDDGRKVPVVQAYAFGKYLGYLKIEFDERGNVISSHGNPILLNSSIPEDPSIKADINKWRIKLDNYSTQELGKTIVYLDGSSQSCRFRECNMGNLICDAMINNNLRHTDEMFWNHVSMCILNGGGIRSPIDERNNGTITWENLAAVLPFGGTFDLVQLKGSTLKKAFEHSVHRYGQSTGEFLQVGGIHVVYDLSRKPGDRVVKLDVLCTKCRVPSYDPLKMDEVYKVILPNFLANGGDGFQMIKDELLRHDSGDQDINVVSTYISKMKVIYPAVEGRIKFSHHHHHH
# experiment-description: ELISA, biotinylated CD73-His on streptavidin plate
recorded-metric: pEC50
Please note pEC50 is a logarithmic value: minus log10 of concentration in mol/L. Answer with that number alone.

{"binder": "48A11-HuV33 (antibody, human IgG4, V domains shown, Humanized) VH: QVQLVQSGAEVKKPGASVKVSCKASGYTFTSYWMHWVRQAPGQGLEWIGEINPSIGRTNYNEKFKSRVTLTRDTSTSTAYMELSSLRSEDTAVYYCARRVYGTMDYWGQGTLVTVSS VL: DIQMTQSPSSLSASVGDRVTITCKASQDINSYLSWFQQKPGKSPKLLIYRANIWVDGVPSRFSGSGSGQDYTFTISSLQPEDIATYYCLQYDELYTFGQGTKVEIK", "pEC50": 10.16}

(Q) Name the reported pEC50 value associated with the binder 56B10-HuV23 (antibody, human IgG4, V domains shown, Humanized) VH: QVQLVQSGAEVKKPGASVKVSCKTSGYTFTRYYIYWVRQAPGQGLEWIGWIYPGNFNTKYNEKFKGRATLTADTSASTAYMELSSLRSEDTAVYYCARDVYDYAGFAYWGQGTLVTVSS VL: DIQMTQSPSFLSASVGDRVTITCKASQGVATAVAWYQQKPGKSPKLLIYWASTRHTGVPSRFSGSGSGTEFTLTISSLQPEDFATYFCQQYSSYPWTFGQGTKVEIK
(A) 9.97
